Data origin, for the record: paper PMC5540273

- Test system: PLK2
- testContext: concentration: 1 μM,replicates: in singlicate; n = 1;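 further: KINOMEscan kinase panel screen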

| compound | experimentalSystem | %Inh / % |
| --- | --- | --- |
| CC(C(=O)NC1CCN(c2ccnc(Nc3ccc(F)cc3)n2)C1)c1ccc(Cl)cc1 (centres unmarked) | PLK2 | 0 |
| NC(=O)Nc1sc(-c2ccc(F)cc2)cc1C(N)=O | PLK2 | 20 |
| Cn1ccc2ncnc(Oc3ccc(NC(=O)Nc4cccc(C(F)(F)F)c4)c(F)c3)c21 | PLK2 | 12 |
| O=C(Nc1n[nH]c2cc(-c3ccco3)ccc12)C1CC1 | PLK2 | 6 |
| Cl.c1ccc(Oc2ccc(Nc3ccnc4cc(-c5ccc(CN6CCNCC6)o5)ccc34)cc2)nc1 | PLK2 | 0 |
| C[C@@H]1CNc2c(sc3ccc4nc(-c5ccncc5)ccc4c23)C(=O)N1 | PLK2 | 1 |
| Cc1ccc(Nc2ccnc(Nc3ccc4c(c3)CS(=O)(=O)C4)n2)cc1O.Cl | PLK2 | 0 |
| CC(=O)Nc1nc2cnc(Nc3cc(NC(=O)c4cccc(CC(C)(C)C#N)c4)ccc3C)nc2s1 | PLK2 | 0 |
| CC(C)S(=O)(=O)N1CCN(Cc2ccc3c(c2)nc(NC(=O)c2ccsc2)n3C[C@H](O)c2ccccc2)CC1 | PLK2 | 0 |
| c1ccc(Oc2ccc(Nc3ccnc4ccc(-c5ccccn5)cc34)cc2)cc1 | PLK2 | 0 |
| COc1cccc(OC)c1C(=O)Nc1cccc(-c2nn3ccccc3c2-c2ccnc(Nc3cccc(F)c3)n2)c1 | PLK2 | 10 |

* * *

- System: CDKL3
- testContext: concentration: 1 μM,replicates: in singlicate; n = 1
# maps each entry to its %Inh
quantityMeasured: %Inh (%)

| compound | quantityMeasured | unitsText | measurement |
| --- | --- | --- | --- |
| Cc1nnc(-c2ccc3occ(-c4ccc(S(C)=O)cc4)c3n2)o1 (stereo not drawn) | %Inh | % | 0 |
| CCOC(=O)N1CCC(n2cnc(-c3ccc(F)cc3)c2-c2ccnc(N)n2)CC1 | %Inh | % | 30 |
| OCCn1cc(-c2cnc3nnn(Cc4ccc5ncccc5c4)c3n2)cn1 | %Inh | % | 10 |
| COc1cccc(CNC(=O)NC2CCN(c3ccnc(Nc4cc(OC)c(OC)c(OC)c4)n3)C2)c1 (stereo not drawn) | %Inh | % | 0 |
| CS(=O)c1ccc(-c2coc3ccc(-c4n[nH]c(=O)o4)cc23)cc1 (stereo not drawn) | %Inh | % | 12 |
| Cc1n[nH]c2cc(Nc3ccnc(Nc4cccc(CN5CCOCC5)c4)n3)ccc12 | %Inh | % | 0 |
| Cn1ccc2ncnc(Oc3ccc(NC(=O)Nc4cccc(C(F)(F)F)c4)c(Cl)c3)c21 | %Inh | % | 6 |
| Cc1cccc2c(-c3ccncc3)c(-c3ccc(F)cc3)nn12.Cl | %Inh | % | 0 |
| CCn1c(-c2nonc2N)nc2cncc(CNC3CCNCC3)c21.Cl | %Inh | % | 0 |
| O=C(NCC1CC1)c1ccc(-c2cc(C(=O)NC3CC3)ccc2F)cc1 | %Inh | % | 28 |
| CC(C)c1nc(-c2cccc(NS(=O)(=O)c3ccccc3)c2)c(-c2ccnc(Nc3ccc4c(c3)CN(C)CC4)n2)s1 | %Inh | % | 37 |
| N#Cc1cccc(C(=O)NC2CCN(c3ccnc(Nc4ccc(F)cc4)n3)C2)c1 (stereo not drawn) | %Inh | % | 0 |
| FC(F)(F)c1cc(Br)cc(Nc2nccc(-c3cnn4ncccc34)n2)c1 | %Inh | % | 97.4 |
| Cn1cc(-c2cccc3c(N)c(C(N)=O)nnc23)cn1 | %Inh | % | 7 |
| C[C@@H]1CNc2c(sc3ccc4nc(-c5ccncc5)ccc4c23)C(=O)N1 | %Inh | % | 5 |
| O=c1[nH]cc(-c2ccc(O)cc2)c2sc(-c3ccncc3)cc12 | %Inh | % | 0 |
| O=C(Nc1cccc(Oc2ccc3nccn3n2)c1)Nc1cccc(C(F)(F)F)c1 | %Inh | % | 0 |
| O=C(Nc1n[nH]c2cc(-c3ccco3)ccc12)C1CC1 | %Inh | % | 0 |
